Where do these numbers come from? They come from patent US20070213359A1.

target.system: Ghrelin receptor (Homo sapiens)
Sequence (Q92847 whole entry): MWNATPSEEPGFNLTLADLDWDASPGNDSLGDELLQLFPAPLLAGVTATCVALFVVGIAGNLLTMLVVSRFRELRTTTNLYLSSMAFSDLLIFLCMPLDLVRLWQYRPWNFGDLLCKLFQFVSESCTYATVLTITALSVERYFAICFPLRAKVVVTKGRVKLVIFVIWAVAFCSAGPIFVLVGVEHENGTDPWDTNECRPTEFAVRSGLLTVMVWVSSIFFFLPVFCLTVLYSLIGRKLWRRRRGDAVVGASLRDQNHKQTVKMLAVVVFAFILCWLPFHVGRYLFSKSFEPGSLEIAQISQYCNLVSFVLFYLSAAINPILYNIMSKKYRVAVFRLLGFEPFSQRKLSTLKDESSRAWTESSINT
test.name: Receptor Selection and Amplification Technology (R-SAT) assay
Format: cell-based
Set-up: expressed in transfected cells; host or cells: NIH3T3
stated.conditions: percent inhibition at saturating ligand, normalized to reference ligand Substance P analog = 100%; read-out: RSAT Eff(%)
Measured Emax, listed per entry.
Hi! Could you send only the number? It should be in %, unit omitted.

Known results for molecules:
CC(=O)c1cn(CCCN2CCC(C(=O)c3ccccc3)CC2)c2ccccc12: 64
CC(=O)c1cn(CCCN2CCC(c3nc(-c4ccncc4)no3)CC2)c2ncccc12: 88
CCOC(=O)C1CCN(CCCn2cc(C(C)=O)c3cccc(OC)c32)CC1: 127
CC(=O)c1cn(CCCN2CCC(Oc3cccc(Cl)c3)CC2)c2ncccc12: 124

Quick note, Emax for `O=C(c1cn(CCCN2CCN(c3ncc(C(F)(F)F)cc3Cl)CC2)c2ncccc12)C(F)(F)F` landed at 27
